Below: a set of entries, each annotated with reported pIC50.
- Test system: pSTAT5/GM-CSF
- testSummary: pSTAT5/GM-CSF cellular assay (JAK2 selectivity)
- Type: cell-based
pIC50: −log10 of the molar value.

For orientation, consider the following solved cases.
CC(=O)Nc1cc(Nc2cccc(S(C)(=O)=O)c2)c(-c2ccccn2)cn1 :: < 5.00
COCC1CN(c2ccc(-c3cnc(NC(C)=O)cc3Nc3cc(OC(C)C)cc(S(C)(=O)=O)n3)nc2)CCO1 (stereo not shown) :: < 5.00
CC(=O)Nc1cc(Nc2nc(S(C)(=O)=O)cn(C)c2=O)c(-c2ccc3c(n2)OCC(C)(C)O3)cn1 :: < 5.00

Query: Report pIC50 from pSTAT5/GM-CSF testing of `CC(=O)Nc1cc(Nc2cccc(S(C)(=O)=O)n2)c(-c2ccn(C)n2)cn1`
Result: 5.19

====

Below: a set of entries, each annotated with reported pIC50.
- assayedTarget: TYK2-JH2 (aa 575-869, in-house) protein (Homo sapiens)
- Construct: TYK2-JH2 (aa 575-869, in-house) protein; made in house
- testSummary: TYK2-JH2 biochemical assay (HTRF probe displacement)
- Assay type: binding
- experimentalContext: Biochemical assay; read-out: TYK2-JH2 IC50
Worth noting: pIC50 values are minus log10 of concentrations stated in mol/L.

Query: Recall and state the measured pIC50 for `CC(=O)Nc1cc(Nc2cc(C)cc(S(C)(=O)=O)c2)c(-c2ccc(C(F)(F)F)cn2)cn1` .
Result: 10.17

Query: Recall and state the measured pIC50 for `CC(=O)Nc1cc(Nc2nc(S(C)(=O)=O)ccc2C)c(-c2ccn(C)n2)cn1` .
Result: 10.40

Query: Recall and state the measured pIC50 for `CC(=O)Nc1cc(Nc2cccc(S(C)(=O)=O)n2)c(-c2ccc(C(C)(C)O)cn2)cn1` .
Result: 10.82

====

Below: a set of entries, each annotated with reported IC50.
- assayedTarget: TYK2-JH2 (aa 575-869, in-house) protein (Homo sapiens, UniProt P29597)
- Construct: TYK2-JH2 (aa 575-869, in-house) protein; made in house
- Sequence (P29597 575-869): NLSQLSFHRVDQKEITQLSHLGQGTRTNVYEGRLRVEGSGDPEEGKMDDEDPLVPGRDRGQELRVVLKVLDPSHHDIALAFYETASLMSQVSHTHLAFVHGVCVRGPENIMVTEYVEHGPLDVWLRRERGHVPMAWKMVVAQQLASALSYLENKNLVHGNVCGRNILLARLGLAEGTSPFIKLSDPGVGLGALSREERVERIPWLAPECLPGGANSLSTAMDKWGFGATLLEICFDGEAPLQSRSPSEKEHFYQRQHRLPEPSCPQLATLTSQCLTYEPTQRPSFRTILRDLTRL
- testSummary: TYK2-JH2 biochemical assay (HTRF probe displacement)
- Assay type: binding
- experimentalContext: Biochemical assay; read-out: TYK2-JH2 IC50
Give a bare numeral; the unit nM is implied.

CC(=O)Nc1cc(Nc2cccc(S(C)(=O)=O)n2)c(-c2cnn(C)c2)cn1 [Example A8] :: 0.26
COc1cc(Nc2cc(NC(C)=O)ncc2-c2ccc(C(C)(C)O)cn2)nc(S(C)(=O)=O)c1 [Example H11] :: 0.027
CC(=O)Nc1cc(Nc2cccc(S(C)(=O)=O)c2)c(-c2ccc(C(F)(F)F)cn2)cn1 [Example F2] :: 0.051
COCCOc1ccc(-c2cnc(NC(C)=O)cc2Nc2cc(C(F)(F)F)cc(S(C)(=O)=O)c2)nc1 [Example D3] :: 0.08

Query: Report IC50 from TYK2-JH2 (aa 575-869, in-house) protein (Homo sapiens, UniProt P29597) testing of CC(=O)Nc1cc(Nc2cc(C(F)(F)F)cc(S(C)(=O)=O)c2)c(-c2ccc(F)cn2)cn1 [Example F13]
Result: 0.21

Query: Report IC50 from TYK2-JH2 (aa 575-869, in-house) protein (Homo sapiens, UniProt P29597) testing of CC(=O)Nc1cc(Nc2cc(OC3CC3)cc(S(C)(=O)=O)c2)c(-c2ccc(C(C)(C)O)cn2)cn1 [Example H23]
Result: 0.034

Query: Report IC50 from TYK2-JH2 (aa 575-869, in-house) protein (Homo sapiens, UniProt P29597) testing of CC(=O)Nc1cc(Nc2cc(OC(C)C)cc(S(C)(=O)=O)c2)c(-c2ccc(F)cn2)cn1 [Example F14]
Result: 0.13

Query: Report IC50 from TYK2-JH2 (aa 575-869, in-house) protein (Homo sapiens, UniProt P29597) testing of CC(=O)Nc1cc(Nc2cc(O[C@H]3C[C@H](O)C3)cc(S(C)(=O)=O)n2)c(-c2ccn(C)n2)cn1 [Example J16]
Result: 0.015

Query: Report IC50 from TYK2-JH2 (aa 575-869, in-house) protein (Homo sapiens, UniProt P29597) testing of CCn1ccc(-c2cnc(NC(C)=O)cc2Nc2cccc(S(C)(=O)=O)c2)n1 [Example M8]
Result: 0.04

Query: Report IC50 from TYK2-JH2 (aa 575-869, in-house) protein (Homo sapiens, UniProt P29597) testing of COCc1ccc(-c2cnc(NC(C)=O)cc2Nc2cc(O[C@H]3C[C@H](O)C3)cc(S(C)(=O)=O)n2)nc1 [Example E8]
Result: 0.034

Query: Report IC50 from TYK2-JH2 (aa 575-869, in-house) protein (Homo sapiens, UniProt P29597) testing of CCOc1cc(Nc2cc(NC(C)=O)ncc2-c2ccc(C(F)(F)F)cn2)nc(S(C)(=O)=O)c1 [Example F10]
Result: 0.04

====

- assayedTarget: TYK2-JH2 (aa 575-869, in-house) protein (Homo sapiens)
- Construct: TYK2-JH2 (aa 575-869, in-house) protein; made in house
- testSummary: TYK2-JH2 biochemical assay (HTRF probe displacement)
- Type: binding
- experimentalContext: Biochemical assay; read-out: TYK2-JH2 IC50
pIC50: −log10 of the molar value.
Note to self: values exactly at 10 are True. So pIC50 at or above 10 is True, below is False.

Completed entries (count: 5):
CC(=O)Nc1cc(Nc2cccc(S(C)(=O)=O)n2)c(-c2ccc(N3C[C@@H](C)O[C@@H](C)C3)cn2)cn1 :: True
COCc1ccc(-c2cnc(NC(C)=O)cc2Nc2cc(OC[C@@H](C)OC)cc(S(C)(=O)=O)n2)nc1 :: True
CC(=O)Nc1cc(Nc2cccc(S(C)(=O)=O)c2)c(-c2cnccn2)cn1 :: False
COCCOc1cc(Nc2cc(NC(C)=O)ncc2-c2ccn(C)n2)cc(S(C)(=O)=O)c1 :: True
COCCOc1cc(Nc2cc(NC(C)=O)ncc2-c2ccc(C(C)(C)O)cn2)cc(S(C)(=O)=O)c1 :: True

Query: Is reported pIC50 greater than or equal to 10 here: `CS(=O)(=O)c1cccc(Nc2cc(NC(=O)C3CC3)ncc2-c2ccccn2)c1`
Result: False

Query: Is reported pIC50 greater than or equal to 10 here: `CC(=O)Nc1cc(Nc2cc(OC(F)(F)F)cc(S(C)(=O)=O)c2)c(-c2ccn(C)n2)cn1`
Result: True

Query: Is reported pIC50 greater than or equal to 10 here: COC(C)c1cc(Nc2cc(NC(C)=O)ncc2-c2ccc(N3C[C@@H](C)O[C@@H](C)C3)cn2)nc(S(C)(=O)=O)c1 (single isomer, unassigned) [Example C20]
Result: True

Query: Is reported pIC50 greater than or equal to 10 here: `CC(=O)Nc1cc(Nc2nc(S(C)(=O)=O)ccc2OC(F)F)c(-c2ccn(C)n2)cn1`
Result: True

Query: Is reported pIC50 greater than or equal to 10 here: `CC(=O)Nc1cc(Nc2cc(O[C@H]3C[C@@H](O)C3)cc(S(C)(=O)=O)n2)c(-c2ccn(C)n2)cn1`
Result: True

Query: Is reported pIC50 greater than or equal to 10 here: `CC(=O)Nc1cc(Nc2cc(C#N)cc(S(C)(=O)=O)c2)c(-c2ccc(C(F)(F)F)cn2)cn1`
Result: False

Data provenance: patent US20240043435A1
